Molecular target: T1, cyno FcRn/b2M (cyno, UniProt Q8SPV9 24-297; Q8SPW0 21-119, biotinylated)
T1 construct: bought recombinant biotinylated protein (Immunitrack ITF05 or ACRO FCM-C82W5); also called cFcRn; cFcRn/cb2M
T1 sequence (Q8SPV9 24-297 limits assumed, chain 1 of 2): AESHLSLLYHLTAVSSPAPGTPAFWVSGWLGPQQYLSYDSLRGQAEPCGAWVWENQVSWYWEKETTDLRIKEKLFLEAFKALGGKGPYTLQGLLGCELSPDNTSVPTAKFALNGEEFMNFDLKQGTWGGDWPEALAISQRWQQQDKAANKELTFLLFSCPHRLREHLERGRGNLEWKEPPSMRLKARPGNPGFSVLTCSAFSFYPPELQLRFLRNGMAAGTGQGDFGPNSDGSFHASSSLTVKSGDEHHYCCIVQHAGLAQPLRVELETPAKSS
T1 sequence (Q8SPW0 21-119 limits assumed, chain 2 of 2): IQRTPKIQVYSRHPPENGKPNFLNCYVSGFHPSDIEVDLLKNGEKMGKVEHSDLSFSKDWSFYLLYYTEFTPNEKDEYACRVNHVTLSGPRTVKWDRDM
Assay: SPR off-rate; pH 7.4 vs pH 6.0;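 also: surface plasmon resonance with diluted periplasmic extracts flowed over ligand surfaces, 120 s association and 600–3600 s dissociation at 25 °C, running buffer containing 150 mM NaCl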

BINDER	kd ratio pH 7.4/6.0
T0263018B11 G26D (VHH, name in Kabat numbering, FLAG3-His6 tagged) VHH: EVQLVESGGGVVQPGGSLRLSCAASDFTFSSYAMYWVRQAPGKGLEWVSAISSGGGSTDYADSVKGRFTISRDNSKNTLYLQMNSLRPEDTALYYCAADTLYTSLTWYSYWGQGTLVTVSS	61
T0263018B11 G54E (VHH, name in Kabat numbering, FLAG3-His6 tagged) VHH: EVQLVESGGGVVQPGGSLRLSCAASGFTFSSYAMYWVRQAPGKGLEWVSAISSGEGSTDYADSVKGRFTISRDNSKNTLYLQMNSLRPEDTALYYCAADTLYTSLTWYSYWGQGTLVTVSS	39
T0263018B11 Y32Q (VHH, name in Kabat numbering, FLAG3-His6 tagged) VHH: EVQLVESGGGVVQPGGSLRLSCAASGFTFSSQAMYWVRQAPGKGLEWVSAISSGGGSTDYADSVKGRFTISRDNSKNTLYLQMNSLRPEDTALYYCAADTLYTSLTWYSYWGQGTLVTVSS	75
T0263018B11 D58Y (VHH, name in Kabat numbering, FLAG3-His6 tagged) VHH: EVQLVESGGGVVQPGGSLRLSCAASGFTFSSYAMYWVRQAPGKGLEWVSAISSGGGSTYYADSVKGRFTISRDNSKNTLYLQMNSLRPEDTALYYCAADTLYTSLTWYSYWGQGTLVTVSS	12
